Experiment: Quantitative High-Throughput drug screen in 47 multiple myeloma cell lines against the NCATS MIPE library collection: OPM2_DSMZ cell viability assay (AID 1919872); further: nearly all actives have a fitted effect of over 30% in size; further: potency means the concentration at half of the fitted maximal effect
Details: OPM2 myeloma viability, CellTiter-Glo ATP luminescence, 48 h; series mostly up to 45.8 µM
Records with an inconclusive call do not appear. Calls of active or inactive are those of the source. The call rests on the fitted dose curve; in most records, active means well fitted cell-killing curve with a large enough effect; inconclusive means small, poorly fitted or top-dose-only effect, or effect the other way; inactive means no such curve, though single readings can be large or run the other way.

COMPOUND | Potency
C[C@]12CC[C@@H]3c4ccc(O)cc4CC[C@H]3[C@H]1CC[C@H]2O | 18.7 µM (active)
NC(=O)c1ncn([C@@H]2O[C@H](CO)[C@@H](O)[C@@H]2O)c1N | inactive
N#CC(=C(O)c1ccc(Cl)cc1Cl)c1nc2cc(Cl)ccc2c(=O)[nH]1 | inactive
CCc1c(O)cc(O)c(C(=O)c2ccc(OCCN3CCOCC3)c(OC)c2)c1CC(=O)N(CCOC)CCOC | 1.05 µM (active)
CC(=O)SCC(Cc1ccccc1)C(=O)NCC(=O)OCc1ccccc1 (centres undefined) | 5.9 µM (active)
C=C1C(=O)O[C@H]2[C@@H]1CCC(C)=CCC[C@@]1(C)O[C@@H]21 | 5.9 µM (active)
c1cncc(CN2CCC(n3ncc4c(N5CCOCC5)nc(-c5ccc6[nH]ccc6c5)nc43)CC2)c1 | 14.8 µM (active)
CN(C)CC(=O)N1CCC(c2ccc(NC(=O)c3ncc(C#N)[nH]3)c(C3=CCCCC3)c2)CC1 | inactive
CC(C)OC(=O)[C@H](C)N[P@](=O)(OC[C@H]1O[C@@H](n2ccc(=O)[nH]c2=O)[C@](C)(F)[C@H]1O)Oc1ccccc1 | inactive

* * *

Assay: High-throughput drug toxicity screening in the BPDCN cell line Cal-1 (AID 1224825);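 further: cells exposed to compounds for 48 h; 100% = DMSO and 0% = bortezomib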
Settings: Cal-1 BPDCN cell viability, qHTS; at 45.8 µM (top of the series) unless noted

COMPOUND STRING | viability (% of control), %
CCS(=O)(=O)Nc1ccc2[nH]c(O)c(C(=Nc3ccc(CN4CCCCC4)cc3)c3ccccc3)c2c1 | 7.15
Cc1[nH]c(C=C2C(=O)Nc3ccccc32)c(C)c1CCC(=O)O | 5.24
Oc1ccc(-c2ccc(-c3cc(Nc4cccc(CNC5CC5)c4)n[nH]3)cc2)c(O)c1 | 3.58
COC1=C2C[C@@H](C)C[C@H](OC)[C@@H](O)[C@@H](C)C=C(C)[C@H](OC(N)=O)[C@@H](OC)C=CC=C(C)C(=O)NC(=CC1=O)C2=O | 4.06
CC(C)(C)c1nc2c3cc[nH]c(=O)c3c3cc(F)ccc3c2[nH]1 | 26.4
CN(C)CC(=O)N1CCC(c2ccc(NC(=O)c3ncc(C#N)[nH]3)c(C3=CCCCC3)c2)CC1 | 28.6
C=CC[C@@H]1C=C(C)C[C@H](C)C[C@H](OC)[C@H]2O[C@@](O)(C(=O)C(=O)N3CCCC[C@H]3C(=O)O[C@H](C(C)=C[C@@H]3CC[C@H](O)[C@H](OC)C3)[C@@H](C)[C@@H](O)CC1=O)[C@@H](C)C[C@@H]2OC | 44.2

* * *

Assay: qHTS of pediatric cancer cell lines to identify multiple opportunities for drug repurposing: Primary screen for Rh41 cells (AID 1347108); further: nearly all actives have a fitted effect of over 70% in size
Settings: Rh41 rhabdomyosarcoma viability, CellTiter-Glo luminescence, 48 h; series mostly up to 46 µM
Inconclusive results are not listed. The source made the active and inactive calls. Calls follow the shape of the dose curve; as a rule, active = well fitted cell-killing curve with a large enough effect; inconclusive = small, poorly fitted or top-dose-only effect; inactive = no such curve, though single readings can be large or run the other way.
Classes used: t = active, f = inactive

COMPOUND | ASSIGNED CATEGORY
CCN(CC)CCNC(=O)c1c(C)[nH]c(C=C2C(=O)Nc3ccc(F)cc32)c1C | t
CC(=O)N1CCN(c2ccc(OCc3nn(C)c(C)c3-c3cccc4c(CCCOc5cccc6ccccc56)c(C(=O)O)n(Cc5cccnc5)c34)cc2)CC1 | t
CC(=O)NC(CS)C(=O)O (stereo not given) | f
Cc1cc(-c2nnc3n2CCCCC3)c(C)n1-c1ccccc1 | f
CC(C=CC(=O)NO)=C[C@@H](C)C(=O)c1ccc(N(C)C)cc1 | t

Hello, the source for this data is PubChem BioAssay (NCATS), in case you need it.
